measured.on: LXR α (Homo sapiens)
Construct: Co-transfection expression plasmids, comprising full-length LXR α (pCMX-hLXR α)
Sequence (Q13133 1-447): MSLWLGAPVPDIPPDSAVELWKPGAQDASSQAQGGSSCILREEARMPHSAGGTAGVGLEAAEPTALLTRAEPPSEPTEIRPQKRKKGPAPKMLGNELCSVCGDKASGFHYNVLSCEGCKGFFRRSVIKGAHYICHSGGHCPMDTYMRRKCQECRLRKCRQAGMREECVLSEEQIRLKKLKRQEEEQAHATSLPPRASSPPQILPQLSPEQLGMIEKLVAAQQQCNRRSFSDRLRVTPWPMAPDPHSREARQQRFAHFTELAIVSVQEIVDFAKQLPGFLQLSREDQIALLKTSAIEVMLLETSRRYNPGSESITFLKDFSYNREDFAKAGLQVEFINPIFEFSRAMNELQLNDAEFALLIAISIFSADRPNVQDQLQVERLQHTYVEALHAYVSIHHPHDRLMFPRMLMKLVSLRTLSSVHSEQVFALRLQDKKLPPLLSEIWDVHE
Sequence (P19793 1-462 partner): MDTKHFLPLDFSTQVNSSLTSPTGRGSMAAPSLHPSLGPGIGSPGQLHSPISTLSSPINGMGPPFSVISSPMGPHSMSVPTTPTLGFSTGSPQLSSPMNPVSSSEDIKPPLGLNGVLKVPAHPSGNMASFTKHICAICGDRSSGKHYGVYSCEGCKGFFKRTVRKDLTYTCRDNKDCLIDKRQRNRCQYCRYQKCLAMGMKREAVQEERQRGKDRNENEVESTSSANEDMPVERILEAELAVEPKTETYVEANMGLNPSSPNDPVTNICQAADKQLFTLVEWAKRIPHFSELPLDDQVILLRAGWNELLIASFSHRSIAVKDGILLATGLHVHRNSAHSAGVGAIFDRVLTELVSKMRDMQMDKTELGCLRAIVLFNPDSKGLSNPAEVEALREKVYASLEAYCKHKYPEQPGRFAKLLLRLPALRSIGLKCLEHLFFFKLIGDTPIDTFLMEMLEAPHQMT
protocol.text: LXR/LXRE co-transfection assay (luciferase reporter, CV-1 cells)
condition.notes: average EC50 for agonism, cotransfection assay, CV-1 cells
Assignment: determine reported EC50 for the given compounds.

q: So what's the measured EC50 for this one? `O=c1c2c(Cl)cccc2cc(-c2ccc(Oc3ccccc3)cc2)n1Cc1cccs1`
a: 10 to 150 nM

q: Next compound up: `Nc1ccc(-c2coc(-c3cc4cccc(Cl)c4c(=O)n3Cc3ccc(F)cc3F)c2)cc1C(F)(F)F`
a: < 10 nM

q: Try this compound next: `Cc1ccc(Cn2c(-c3ccc(Oc4ccccc4)cc3)cc3cccc(C)c3c2=O)cc1`
a: 10 to 150 nM

q: Input `Cc1ccc(Cn2c(-c3ccc(Oc4ccccc4)cc3)cc3ccccc3c2=O)c(C)c1`
a: 10 to 150 nM

q: Then what about the compound `Cc1ccc(Cn2c(-c3ccsc3)cc3ccccc3c2=O)c(C)c1` ?
a: > 500 nM

q: Ok, now `O=c1c2c(Cl)cccc2cc(-c2ccc(Oc3cnccn3)cc2)n1Cc1ccc(F)cc1F`
a: < 10 nM

q: Try the compound Cc1cccc(-c2cc3ccccc3c(=O)n2Cc2ccccc2)c1 [2-benzyl-3-m-tolyl-2H-isoquinolin-1-one]
a: > 500 nM

q: Thanks! And `Cc1ccc(Cn2c(C#CC(C)(C)O)cc3ccccc3c2=O)c(C)c1` ?
a: > 500 nM

q: Here is the next compound: `CCOc1ccc(-c2csc(-c3cc4cccc(Cl)c4c(=O)n3Cc3ccc(F)cc3F)c2)cc1Cl`
a: 10 to 150 nM

q: // same read-out, input: `O=c1c2c(Cl)cccc2cc(-c2ccc(Oc3ccccc3)cc2)n1Cc1ccc(F)cc1F`
a: 10 to 150 nM

q: Let us now turn to `Cc1cccc(-c2cc3ccccc3c(=O)n2Cc2ccc(C)cc2C)c1`
a: 150 to 500 nM

q: # iterate: `O=c1c2c(Cl)cccc2cc(-c2cc(-c3cc(C(F)(F)F)cc(C(F)(F)F)c3)co2)n1Cc1ccc(F)cc1F`
a: 10 to 150 nM

q: Continue with `CS(=O)(=O)c1ccc(-c2ccc(-c3cc4cccc(Cl)c4c(=O)n3Cc3ccc(F)cc3F)s2)cc1`
a: 10 to 150 nM

q: Item: `O=c1c2c(Cl)cccc2cc(-c2ccc(Oc3ccccc3)cc2)n1CC1CCCCC1`
a: 10 to 150 nM
